Biological target: human Nav1.1 (Homo sapiens, UniProt P35498)
Construct: host or cells: HEK293
Assay: Amplification of Nav1.1-derived voltage-dependent sodium current (Nav1.1 current), cell line stably expressing human Nav1.1, automated patch clamp
Assay type: cell-based
Details: concentration of each compound 1 μmol/L (Test Result 6)
Result Type: Nav1.1 current amplification rate (%)

Memo: CC1CC=C(c2ccc(=O)n(CC(=O)Nc3cncc(-c4cnn(C)c4)c3)n2)CC1 (racemic) [Example 378] , reported Nav1.1 current amplification rate (%): 37

1 = CC1CC=C(c2ccc(=O)n(CC(=O)N3CCc4c3ccnc4-c3cn[nH]c3)n2)CC1 (racemic) [Example 285]
2 = CC1CC=C(c2ccc(=O)n(CC(=O)Nc3ccn4cnnc4c3)n2)CC1 (racemic) [Example 358]
3 = CC1CC=C(c2ccc(=O)n(CC(=O)Nc3ccc4ncnn4n3)n2)CC1 (racemic) [Example 350]
In: Task field, ranking: reported Nav1.1 current amplification rate (%), descending order. Answer by writing out the labels in the requested order.
Out: 1, 2, 3
(1: 113%, 2: 71%, 3: 31%)
